All figures here come from patent US6537995B2.

List of melting point values.
parameter.measured: melting point

INSERT INTO assay_data (compound, parameter_measured, recorded_result) VALUES
  ('CN1CCN(c2ccc(F)cc2-c2ccc(C(=O)NCc3ccc(Cl)cc3)s2)CC1.O (hydrate or solvate)', 'melting point', '175 to 176.5 °C'),
  ('CN1CCN(c2ccccc2-c2ccc(C(=O)Nc3ccc(Cl)cc3)o2)CC1.Cl.O (hydrate or solvate)', 'melting point', '145 °C (dec.)'),
  ('CN1CCN(c2ccccc2-c2ccc(C(=O)Nc3ccc(Cl)cc3)s2)CC1.Cl', 'melting point', '149 °C (dec.)'),
  ('CN1CCN(c2ccccc2-c2ccc(C(=O)NCc3ccc(F)cc3)s2)CC1.Cl.O (hydrate or solvate)', 'melting point', '187 to 188 °C'),
  ('CN1CCN(c2ccccc2-c2ccc(C(=O)NCc3ccccc3)s2)CC1.Cl.O.O (hydrate or solvate)', 'melting point', '145 °C (dec.)'),
  ('COc1ccc(CNC(=O)c2ccc(-c3ccccc3N3CCN(C)CC3)s2)cc1.Cl', 'melting point', '140 °C (dec.)'),
  ('CN1CCN(c2ccccc2-c2ccc(C(=O)NCc3ccc(Cl)cc3)s2)CC1.Cl.O (hydrate or solvate)', 'melting point', '256 to 257 °C'),
  ('CN1CCN(c2ccccc2-c2ccc(C(=O)NCc3ccc(Cl)cc3)o2)CC1.Cl.O (hydrate or solvate)', 'melting point', '110 °C (dec.)'),
  ('CN1CCN(c2ccccc2-c2ccc(C(=O)NCc3ccc(Cl)cc3)[nH]2)CC1.Cl', 'melting point', '80 °C (dec.)');
